Reported IC50 by item:
Target: T1, mouse active NSP4 (mA-NSP4) (mouse, UniProt Q14B24 40-284)
T1 construct: mature; Made from mZ by enteropeptidase cleavage; also called mature form of mouse NSP4
T1 sequence (looked up): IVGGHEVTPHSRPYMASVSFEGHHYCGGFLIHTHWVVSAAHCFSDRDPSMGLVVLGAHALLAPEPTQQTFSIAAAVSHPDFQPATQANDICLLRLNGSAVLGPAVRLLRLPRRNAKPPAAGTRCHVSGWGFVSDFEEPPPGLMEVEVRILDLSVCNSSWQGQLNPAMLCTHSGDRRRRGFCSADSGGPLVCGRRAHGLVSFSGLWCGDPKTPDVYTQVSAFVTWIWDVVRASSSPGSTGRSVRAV
Test: competition phage ELISA (phage IC50): phage clone preincubated with soluble mA-NSP4, then on NSP4-coated wells
API: value field is a number in nM; no unit string.

Here is how some binders turned out for IC50.
1) anti-NSP4 antibody 5-3 (antibody, human IgG1, V domains shown) VH: EVQLVESGGGLVQPGGSLRLSCAASGFTFSGNDISWVRQAPGKGLEWVAGISPYGGSTYYADSVKGRFTISADTSKNTAYLQMNSLRAEDTAVYYCARRVSFYSRHAGMDYWGQGTLVTVSS VL: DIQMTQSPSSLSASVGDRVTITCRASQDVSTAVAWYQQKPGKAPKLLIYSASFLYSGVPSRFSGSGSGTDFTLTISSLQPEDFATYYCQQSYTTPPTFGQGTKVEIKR : 319
2) anti-NSP4 antibody 5-2 (antibody, human IgG1, V domains shown, also called Ab 5-2) VH: EVQLVESGGGLVQPGGSLRLSCAASGFTFSNTYISWVRQAPGKGLEWVGFIYPANGATYYADSVKGRFTISADTSKNTAYLQMNSLRAEDTAVYYCARRYRLSFDYWGQGTLVTVSS VL: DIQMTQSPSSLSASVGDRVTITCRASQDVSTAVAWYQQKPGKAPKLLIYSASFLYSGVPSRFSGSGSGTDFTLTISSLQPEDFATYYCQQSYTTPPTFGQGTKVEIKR : 25
3) anti-NSP4 antibody 5-4 (antibody, human IgG1, V domains shown, also called Ab 5-4) VH: EVQLVESGGGLVQPGGSLRLSCAASGFTFTSYAISWVRQAPGKGLEWVAGISPSNGYTNYADSVKGRFTISADTSKNTAYLQMNSLRAEDTAVYYCARAGRWTHSDIDYWGQGTLVTVSS VL: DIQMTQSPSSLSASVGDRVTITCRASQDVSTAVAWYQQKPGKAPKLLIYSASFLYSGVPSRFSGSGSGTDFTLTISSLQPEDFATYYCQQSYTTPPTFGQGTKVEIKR : 60.5

Kindly review the next binder as well.
Query block: So what does the record say about IC50 for anti-NSP4 antibody 5-1 (antibody, V domains shown, also called Ab 5-1; Ab5-1) VH: EVQLVESGGGLVQPGGSLRLSCAASGFTFSGSGIHWVRQAPGKGLEWVAWISPTGGNTYYADSVKGRFTISADTSKNTAYLQMNSLRAEDTAVYYCAKSLFHNVAFDYWGQGTLVTVSS VL: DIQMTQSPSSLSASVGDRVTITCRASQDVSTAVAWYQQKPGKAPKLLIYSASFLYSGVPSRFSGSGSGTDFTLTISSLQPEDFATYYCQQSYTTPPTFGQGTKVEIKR ?
Result block: 9.93
